Reference for the values: patent US20240252674A1

biological target: IgG; test: Binding of peptide IgG binder (directing group) to IgG; conditions: Kd of the directing group included in the peptide IgG binder
measured_endpoint: Kd (nM)

[1] DCAWXLGELVWCT peptide [cyclic peptide IgG binder]
[2] GSYWYDVWF peptide [linear peptide IgG binder]
Asked: Kd comparison. Which is larger, 1 or 2 ? Please indicate the selected item by its label.
Given back: 2
